target_or_test_system: Methionine--tRNA ligase (Staphylococcus aureus)
assay_remarks: Compound tested for inhibition of Staphylococcus aureus MRS(methionyl tRNA synthetase) in aminoacylation assay
pIC50: −log10 of the molar value.
Classification field: enter label 1 for pIC50 values not below 8, label 0 for values below it.

INSERT INTO assay_data (given_smiles, category_label) VALUES
  ('CCNc1c(Br)cc(Br)cc1CNCCCNc1cc(O)c2ccccc2n1', 'label 0');

Please look at the following molecule next.
Exercise: Could you please find out whether `CCOc1c(Br)cc(OC)cc1CNCCCNc1cc(O)c2ccccc2n1` has pIC50 that meets 8 or exceeds it?
Key: label 1

* * *

target_or_test_system: Methionine--tRNA ligase (Staphylococcus aureus)
assay_remarks: Compound tested for inhibition of Staphylococcus aureus MRS(methionyl tRNA synthetase) in aminoacylation assay
pIC50: −log10 of the molar value.
Mark f for pIC50 values under 8, and t for everything at or above.

Below are worked cases with known answers.
INSERT INTO assay_data (given_smiles, category_label) VALUES
  ('CCOc1c(Cl)cc(OC)cc1CNCCCNc1cc(O)c2ccccc2n1', 't'),
  ('CCOc1c(Br)cc(SC)cc1CNCCCNc1cc(O)c2ccccc2n1', 't'),
  ('CC(C)Oc1c(Cl)cc(Cl)cc1CNCCCNc1cc(O)c2ccccc2n1', 'f'),
  ('CCOc1c(Br)cc(C)cc1CNCCCNc1cc(O)c2ccccc2n1', 't');

Query compound follows.
Exercise: Given the entry `CCOc1c(Br)cc(C#N)cc1CNCCCNc1cc(O)c2ccccc2n1` , answer whether its pIC50 meets or surpasses 8.
Key: t

Data provenance: BindingDB's records for doi:10.1016/s0960-894x(02)01027-2
